system_tested: AII-1 receptor
protocol_description: [125I]AII radioligand binding, rat adrenal cortical microsomes, AII-1 (DuP 753-sensitive) sites
run_parameters: in the presence of 10^-5 M XB-655; rat adrenal cortex microsomes; read-out: IC50 AII-1
pIC50: −log10 of the molar value.
measured_metric: pIC50

INSERT INTO results (molecule, readout_value) VALUES
  ('CCCCc1nc(Cl)c(CO)n1Cc1ccc(-c2ccccc2-c2nn[nH]n2)cc1', 7.92),
  ('O=C(O)C1Cc2c(ncn2Cc2ccc(-c3ccccc3-c3nnn[nH]3)cc2)CN1C(=O)C(c1ccccc1)c1ccccc1 (stereo not shown)', 3.52),
  ('CNCC(=O)N[C@@H](CCCN=C(N)N)C(=O)N[C@H](C(=O)N[C@@H](Cc1ccc(O)cc1)C(=O)N[C@H](C(=O)N[C@@H](Cc1cnc[nH]1)C(=O)N1CCC[C@H]1C(=O)N[C@@H](C)C(=O)O)C(C)C)C(C)C', 8.77),
  ('COC(=O)C1Cc2c(ncn2Cc2ccc(NC(=O)c3ccccc3C(=O)O)c(C)c2)CN1C(=O)C(c1ccccc1)c1ccccc1 (stereo not shown)', 4.92);
